All figures here come from patent US12686689B2.

# pIC50 per record follows
testedOn: HPK1 (Homo sapiens, UniProt Q92918)
Sequence (Q92918 whole entry): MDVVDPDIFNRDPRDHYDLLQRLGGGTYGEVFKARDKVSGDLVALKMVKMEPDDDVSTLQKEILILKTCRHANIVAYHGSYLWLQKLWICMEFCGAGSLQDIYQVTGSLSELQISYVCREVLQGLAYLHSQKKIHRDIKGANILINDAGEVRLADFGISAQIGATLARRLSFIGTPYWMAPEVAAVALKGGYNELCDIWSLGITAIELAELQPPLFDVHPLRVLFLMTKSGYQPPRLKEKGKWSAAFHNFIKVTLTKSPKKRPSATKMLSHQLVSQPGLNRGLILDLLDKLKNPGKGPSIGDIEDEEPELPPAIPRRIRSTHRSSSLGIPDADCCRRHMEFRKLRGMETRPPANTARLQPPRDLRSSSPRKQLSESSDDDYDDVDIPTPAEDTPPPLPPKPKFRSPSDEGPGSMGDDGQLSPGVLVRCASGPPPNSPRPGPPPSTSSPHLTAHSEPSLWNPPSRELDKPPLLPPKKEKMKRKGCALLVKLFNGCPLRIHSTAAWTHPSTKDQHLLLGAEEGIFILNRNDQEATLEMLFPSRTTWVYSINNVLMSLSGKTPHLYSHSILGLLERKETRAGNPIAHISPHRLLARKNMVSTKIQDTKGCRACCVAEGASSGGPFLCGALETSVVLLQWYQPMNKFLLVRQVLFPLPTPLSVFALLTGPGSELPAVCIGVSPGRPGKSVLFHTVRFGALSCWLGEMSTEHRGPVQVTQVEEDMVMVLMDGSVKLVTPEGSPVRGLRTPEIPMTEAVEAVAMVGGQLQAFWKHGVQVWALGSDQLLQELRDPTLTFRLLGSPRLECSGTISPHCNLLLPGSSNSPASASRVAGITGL
pIC50: −log10 of the molar value.

Checklist item: pIC50 tested on HPK1 (Homo sapiens, UniProt Q92918), entry CN1CCN2c3ccc(-c4n[nH]c5cc(C#N)c(-c6c(F)ccc7c6CCCC7N)cc45)cc3OCC2C1 (stereo not shown) [Compound 38] , value?
≥ 8.00

Try CN1CCN2c3ccc(-c4n[nH]c5cc(C#N)c(-c6cccc(F)c6F)cc45)cc3OCC2C1 (stereo not shown) [Compound 7] next.
≤ 7.00

One more compound: CN1CCN2c3ccc(-c4n[nH]c5cc(C#N)c(-c6c(F)cc(NC(=O)Cc7cccnc7)cc6F)cc45)cc3OCC2C1 (stereo not shown) [Compound 31]
7.00 to 8.00

Query CN1CCN2c3ccc(-c4n[nH]c5cc(C#N)c(-c6cccc(C(N)=O)c6F)cc45)cc3OCC2C1 (stereo not shown) [Compound 9] next
≥ 8.00

And the next one, CNCc1cc(C)c(-c2cc3c(-c4ccc5c(c4)N(C)CC4CN(C)CCN54)n[nH]c3cc2C#N)c(F)c1 (stereo not shown) [Compound 122] ?
≥ 8.00

Entry CN1CCN2c3ccc(-c4cnc5[nH]cc(-c6ccc(C(=O)N7CC(N(C)C)C7)cc6)c5c4)cc3OCC2C1 (stereo not shown) [Compound 103] please
≥ 8.00

Would you mind doing CN1CCN2c3ccc(-c4cnc5[nH]nc(-c6ccc(C(=O)N7CC(N(C)C)C7)cc6)c5c4)cc3OCC2C1 (stereo not shown) [Compound 115] as well?
≥ 8.00
